Target: T1, Axl protein (human, UniProt P30530 26-451)
T1 construct: extracellular domain; also called human Axl; hAxl
T1 sequence (looked up): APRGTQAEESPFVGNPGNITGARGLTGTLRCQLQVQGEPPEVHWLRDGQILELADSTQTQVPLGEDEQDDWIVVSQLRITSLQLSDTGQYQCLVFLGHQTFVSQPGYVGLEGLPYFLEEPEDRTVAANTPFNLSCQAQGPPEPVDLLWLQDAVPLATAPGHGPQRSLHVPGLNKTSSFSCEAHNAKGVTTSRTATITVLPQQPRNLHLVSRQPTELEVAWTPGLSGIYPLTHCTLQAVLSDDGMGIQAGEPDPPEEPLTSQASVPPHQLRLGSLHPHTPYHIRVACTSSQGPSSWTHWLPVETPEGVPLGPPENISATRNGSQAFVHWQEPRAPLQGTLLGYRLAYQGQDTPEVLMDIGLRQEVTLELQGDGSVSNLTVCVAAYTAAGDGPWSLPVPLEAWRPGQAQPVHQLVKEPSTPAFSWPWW
Test: ELISA, 1:9 dilution, pH 6.0 over pH 7.4
measuredParameter: Affinity ELISA CPE mutant ratio (1:9, pH 6.0/7.4) (ratio)

| binder | reportedMeasurement |
| --- | --- |
| HC-E102R (antibody, V domains shown) VH: EVQLVQSGAEVKKPGATVKISCKVSGYSFTGHTMNWIRQPPGKGLEWIGLIKPSNGGTSYNQKFKGRVTISADKSISTAYLQWSSLKASDTAMYYCAHGHYRSYFAMDYWGQGTLVTVSS VL: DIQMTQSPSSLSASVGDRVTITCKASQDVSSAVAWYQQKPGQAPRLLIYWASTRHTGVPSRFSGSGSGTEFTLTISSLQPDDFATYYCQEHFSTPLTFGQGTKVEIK | 3.42 |
| HC-W110A (antibody, V domains shown) VH: EVQLVQSGAEVKKPGATVKISCKVSGYSFTGHTMNWIRQPPGKGLEWIGLIKPSNGGTSYNQKFKGRVTISADKSISTAYLQWSSLKASDTAMYYCAHGHYESYFAMDYAGQGTLVTVSS VL: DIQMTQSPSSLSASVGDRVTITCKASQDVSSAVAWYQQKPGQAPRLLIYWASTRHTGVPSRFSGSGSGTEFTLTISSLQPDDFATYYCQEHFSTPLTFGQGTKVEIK | 1.2 |
